# experiment: Phase 1 clinical study, pharmacokinetics of granisetron after intravenous and intranasal administration
# Format: in vivo, human
# conditions.used: human, plasma, inhaled or intranasal; intranasal 1.0 mg (TRG capsule, single nostril), healthy male volunteers, mean
quantity.name: AUC(0-inf) (ng·h/mL)

| molecule | result |
| --- | --- |
| CN1C2CCCC1CC(NC(=O)c1nn(C)c3ccccc13)C2 (stereo not shown) | 119 |

---

# experiment: Phase 1 clinical study, pharmacokinetics of granisetron after intravenous and intranasal administration
# Format: in vivo, human
# conditions.used: human, plasma, 10 ug/kg; intravenous 10 μg/kg (Kytril), healthy male volunteers, mean, N=8; read-out: Vss

| compound | result.unit | Vd |
| --- | --- | --- |
| CN1C2CCCC1CC(NC(=O)c1nn(C)c3ccccc13)C2 (stereo not shown) | L | 108 |
